// % of WT (kcat/KM) lookup, one value per entry
Biological target: Factor X, P00742
Sequence (P00742 whole entry, looked up): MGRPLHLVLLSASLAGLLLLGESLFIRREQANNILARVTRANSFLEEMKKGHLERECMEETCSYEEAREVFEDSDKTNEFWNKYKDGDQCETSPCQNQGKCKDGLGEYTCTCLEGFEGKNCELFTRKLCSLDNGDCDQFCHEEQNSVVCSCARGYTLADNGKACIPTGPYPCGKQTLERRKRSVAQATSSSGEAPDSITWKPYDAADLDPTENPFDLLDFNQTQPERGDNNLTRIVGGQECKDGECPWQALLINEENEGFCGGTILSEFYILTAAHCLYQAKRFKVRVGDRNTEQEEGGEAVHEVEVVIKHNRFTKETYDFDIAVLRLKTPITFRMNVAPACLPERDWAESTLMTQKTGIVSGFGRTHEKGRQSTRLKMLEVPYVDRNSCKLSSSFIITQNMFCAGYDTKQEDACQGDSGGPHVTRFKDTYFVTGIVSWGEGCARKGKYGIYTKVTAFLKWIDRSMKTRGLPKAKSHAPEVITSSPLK
QUANTITY NAME: % of WT (kcat/KM) (%)

INSERT INTO assay_data (protein, quantity_name, unit_abbrev, value_observed) VALUES
  ('FIXa-Y155F/R318Y/R338E/R403E (protein) chain 1: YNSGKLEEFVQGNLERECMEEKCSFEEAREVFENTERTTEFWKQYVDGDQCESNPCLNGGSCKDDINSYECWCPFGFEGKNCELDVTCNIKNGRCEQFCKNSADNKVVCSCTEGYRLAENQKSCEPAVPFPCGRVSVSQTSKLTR chain 2: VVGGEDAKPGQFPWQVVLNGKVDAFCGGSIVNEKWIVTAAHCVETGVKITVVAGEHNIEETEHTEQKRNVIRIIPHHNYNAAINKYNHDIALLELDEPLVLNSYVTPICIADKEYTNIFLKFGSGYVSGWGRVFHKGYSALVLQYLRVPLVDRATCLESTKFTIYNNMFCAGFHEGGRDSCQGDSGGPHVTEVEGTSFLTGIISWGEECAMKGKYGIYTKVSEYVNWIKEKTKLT', '% of WT (kcat/KM)', '%', 189),
  ('FIXa-R338E/R403E/E410N (protein) chain 1: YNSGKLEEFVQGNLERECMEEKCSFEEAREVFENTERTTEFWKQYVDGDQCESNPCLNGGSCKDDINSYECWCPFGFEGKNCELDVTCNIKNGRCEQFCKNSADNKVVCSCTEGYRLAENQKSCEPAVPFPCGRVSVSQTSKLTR chain 2: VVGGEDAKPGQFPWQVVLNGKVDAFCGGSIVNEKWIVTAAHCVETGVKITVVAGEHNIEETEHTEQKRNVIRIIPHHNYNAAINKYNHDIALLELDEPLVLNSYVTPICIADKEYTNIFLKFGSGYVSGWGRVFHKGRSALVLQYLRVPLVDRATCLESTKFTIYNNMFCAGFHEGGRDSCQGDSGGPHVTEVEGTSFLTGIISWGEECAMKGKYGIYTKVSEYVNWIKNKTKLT', '% of WT (kcat/KM)', '%', 411);
